The values you see were collected from patent US12466800B2.

A collection of compounds and their measured IC50
test system: IL-1b; assay: Mouse BMDM IL-1b Assay; format: cell-based; settings: Macrophage; mouse bone marrow derived macrophages (C57BL6); 200 ng/mL LPS 3 h, compound 30 min, 5 mM ATP 45 min; IL-1b ELISA of supernatant

# example entries with known answers
[
  {
    "compound": "O=C(Nc1c2c(c(F)c3c1CCC3)CCC2)NS(=O)(=O)c1cc2c(o1)CCCCC2O (centres unmarked) [Compound 116]",
    "outcome measure": "IC50",
    "value reported": "< 100 nM"
  },
  {
    "compound": "O=C(Nc1c2c(c(Br)c3c1CCC3)CCC2)NS(=O)(=O)c1cc2c(o1)CCCCC2O (centres unmarked) [Compound 118]",
    "outcome measure": "IC50",
    "value reported": "< 100 nM"
  },
  {
    "compound": "CC(C)c1cc(C#N)cc(C(C)C)c1NC(=O)NS(=O)(=O)c1cc2c(o1)CCCC2(C)O (centres unmarked) [Compound 72]",
    "outcome measure": "IC50",
    "value reported": "100 to 1000 nM"
  }
]

Which IC50 reading was recorded for the compound CC(C)c1cccc(C(C)C)c1NC(=O)NS(=O)(=O)c1cc2c(o1)CCCC2=NO [Compound 73] ?
100 to 1000 nM

Which IC50 reading was recorded for the compound CC(C)c1cccc(C(C)C)c1CC(=O)NS(=O)(=O)c1cc2c(o1)CCC(C)(C)C2=O [Compound 76] ?
1000 to 10000 nM
